FYI, the data here is from paper PMC9482650.

Each record here notes measured pKd.
- Test system: T1, SYNJ2BP, P57105
- T1 sequence (P57105 8-110, limits assumed, looked up): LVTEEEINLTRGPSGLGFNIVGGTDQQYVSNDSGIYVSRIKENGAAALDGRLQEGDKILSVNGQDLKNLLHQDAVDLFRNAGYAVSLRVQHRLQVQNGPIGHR
- Assay protocol: holdup assay
- Set-up: key: below the threshold = too weak to quantify, mostly under pKd 3.1 to 4
- Assay conditions: plain residues with an end cap or a label only (N-terminal biotin on a linker: ttds)
Measurement label: pKd

Binder	Recorded measurement
NPDALPETLV [ARHGAP6, O43182]	4.06
PSRDRKETSI [RALBP1, Q15311]	4.7
GARVSKETPL [MAPK12, P53778]	4.69
QRPYRRESEI [KCNJ12, Q14500]	5.17
PPRQRSETQV [HPV82-E6, Q9IR59]	4.86
KQVVPFSSSV [GDA, Q9Y2T3]	5
SGGKRKETLV [NET1, Q7Z628]	5.2
FVETQHQTQV [FAT3, Q8TDW7]	4.08
SSIDLWETAL [SLC15A5, A6NIM6]	5.45
PFRSRSPSEV [GPR6, P46095]	4.18
KLVIKTETTV [RASSF6, Q6ZTQ3]	4.97
GRLLGLETNV [ARHGEF26, Q96DR7]	4.86
SRSRRRETAL [HPV33-E6, P06427]	5.3
SHSSKGETAV [FZD7, O75084]	5.08
